Cited source: patent US20230265116A1

molecular target: EGFR L858R/T790M/C797S (BaF3-LTC cells) (Homo sapiens, UniProt P00533, C797S/L858R/T790M); construct: expressed in transfected cells; host or cells: BaF3; assay: EGFR degradation HTRF assay, BaF3-LTC cells; type: cell-based; details: BaF3-LTC cells; maximum percentage of inhibition (degradation); read-out: Dmax (%) BaF3-LTC
Sequence (P00533 25-1210 T790M/C797S/L858R): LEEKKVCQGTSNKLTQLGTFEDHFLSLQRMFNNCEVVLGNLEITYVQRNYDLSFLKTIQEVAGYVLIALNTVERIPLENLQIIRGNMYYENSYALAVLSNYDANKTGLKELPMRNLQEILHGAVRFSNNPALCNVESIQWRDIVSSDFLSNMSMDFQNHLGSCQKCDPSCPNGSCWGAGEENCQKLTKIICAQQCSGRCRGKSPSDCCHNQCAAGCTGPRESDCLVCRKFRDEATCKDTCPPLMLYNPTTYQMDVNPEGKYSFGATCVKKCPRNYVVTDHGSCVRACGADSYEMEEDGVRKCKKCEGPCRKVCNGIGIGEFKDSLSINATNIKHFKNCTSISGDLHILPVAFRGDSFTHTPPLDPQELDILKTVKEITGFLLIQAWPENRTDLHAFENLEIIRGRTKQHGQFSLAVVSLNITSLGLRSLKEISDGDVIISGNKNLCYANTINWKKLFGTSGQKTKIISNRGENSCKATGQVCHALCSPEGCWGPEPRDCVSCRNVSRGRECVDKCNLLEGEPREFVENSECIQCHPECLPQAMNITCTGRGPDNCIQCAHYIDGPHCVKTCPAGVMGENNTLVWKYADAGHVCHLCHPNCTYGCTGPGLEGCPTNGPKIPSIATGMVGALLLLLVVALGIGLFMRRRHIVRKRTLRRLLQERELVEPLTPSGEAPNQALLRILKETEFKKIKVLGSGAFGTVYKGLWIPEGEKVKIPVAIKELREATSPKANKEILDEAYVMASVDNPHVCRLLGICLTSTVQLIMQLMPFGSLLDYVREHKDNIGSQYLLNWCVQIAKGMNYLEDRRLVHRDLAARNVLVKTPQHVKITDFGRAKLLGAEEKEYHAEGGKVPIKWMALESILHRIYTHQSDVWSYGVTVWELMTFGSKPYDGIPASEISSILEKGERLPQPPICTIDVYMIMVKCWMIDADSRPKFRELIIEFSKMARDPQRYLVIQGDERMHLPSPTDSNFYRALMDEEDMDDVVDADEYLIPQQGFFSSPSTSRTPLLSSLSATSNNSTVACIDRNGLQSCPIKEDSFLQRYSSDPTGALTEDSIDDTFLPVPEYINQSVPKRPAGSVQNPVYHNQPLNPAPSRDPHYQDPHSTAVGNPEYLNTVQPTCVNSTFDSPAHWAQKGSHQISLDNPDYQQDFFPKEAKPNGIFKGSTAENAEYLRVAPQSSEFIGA
Please respond with reported Dmax for every item in the list.
Unit % implied. Number only.

Input: Sample "CCc1ccc2c(P(C)(C)=O)c(Nc3nc(Nc4cc(C)c(N5CCC(N6CCN(C(=O)[C@@H]7CCN(c8cc(F)c([C@H]9CCC(=O)NC9=O)c(F)c8)C7)CC6)CC5)cc4OC)ncc3Br)ccc2n1" — what was its Dmax?
Output: 94.1

Input: I have this compound here, COc1cc(N2CCC(N3CC(C(=O)N4CCC(c5cc(F)c(C6CCC(=O)NC6=O)c(F)c5)CC4)C3)CC2)c(C)cc1Nc1ncc(Br)c(Nc2ccc3nc(C)ccc3c2P(C)(C)=O)n1 (centres unmarked) , and I need its recorded Dmax.
Output: 93.3

Input: What value of Dmax has been recorded for this entry: CCc1cc(Nc2ncc(Br)c(Nc3ccc4nc(C)ccc4c3P(C)(C)=O)n2)c(OC)cc1N1CCC(N2CCN(CCc3cccc4c3C(C)(C)C(=O)N4C3CCC(=O)NC3=O)CC2)CC1 (centres unmarked)
Output: 94.3

Input: What value of measured Dmax is listed for "CCc1ccc2c(P(C)(C)=O)c(Nc3nc(Nc4cc(CC)c(N5CCC(N6CCN(C(=O)CN7CCN(c8cc(F)c([C@H]9CCC(=O)NC9=O)c(F)c8)CC7)CC6)CC5)cc4OC)ncc3Br)ccc2n1" ?
Output: 97.9

Input: Need Dmax, item "CCc1ccc2c(P(C)(C)=O)c(Nc3nc(Nc4cc(CC)c(N5CCC(N6CCN(CCc7ccc([C@H]8CCC(=O)NC8=O)cc7)CC6)CC5)cc4OC)ncc3Br)ccc2n1"
Output: 74.8

====

Kindly state Dmax for each of the entries shown.
molecular target: EGFR (HCC827 cells) (Homo sapiens, UniProt P00533, DEL746-750); construct: endogenous in cells; host or cells: HCC827; experiment: EGFR degradation HTRF assay, HCC827 cells; format: cell-based; settings: HCC827, 16h treatment, maximum percentage of degradation
Sequence (P00533 with tags, fused parts or gaps DEL746-750): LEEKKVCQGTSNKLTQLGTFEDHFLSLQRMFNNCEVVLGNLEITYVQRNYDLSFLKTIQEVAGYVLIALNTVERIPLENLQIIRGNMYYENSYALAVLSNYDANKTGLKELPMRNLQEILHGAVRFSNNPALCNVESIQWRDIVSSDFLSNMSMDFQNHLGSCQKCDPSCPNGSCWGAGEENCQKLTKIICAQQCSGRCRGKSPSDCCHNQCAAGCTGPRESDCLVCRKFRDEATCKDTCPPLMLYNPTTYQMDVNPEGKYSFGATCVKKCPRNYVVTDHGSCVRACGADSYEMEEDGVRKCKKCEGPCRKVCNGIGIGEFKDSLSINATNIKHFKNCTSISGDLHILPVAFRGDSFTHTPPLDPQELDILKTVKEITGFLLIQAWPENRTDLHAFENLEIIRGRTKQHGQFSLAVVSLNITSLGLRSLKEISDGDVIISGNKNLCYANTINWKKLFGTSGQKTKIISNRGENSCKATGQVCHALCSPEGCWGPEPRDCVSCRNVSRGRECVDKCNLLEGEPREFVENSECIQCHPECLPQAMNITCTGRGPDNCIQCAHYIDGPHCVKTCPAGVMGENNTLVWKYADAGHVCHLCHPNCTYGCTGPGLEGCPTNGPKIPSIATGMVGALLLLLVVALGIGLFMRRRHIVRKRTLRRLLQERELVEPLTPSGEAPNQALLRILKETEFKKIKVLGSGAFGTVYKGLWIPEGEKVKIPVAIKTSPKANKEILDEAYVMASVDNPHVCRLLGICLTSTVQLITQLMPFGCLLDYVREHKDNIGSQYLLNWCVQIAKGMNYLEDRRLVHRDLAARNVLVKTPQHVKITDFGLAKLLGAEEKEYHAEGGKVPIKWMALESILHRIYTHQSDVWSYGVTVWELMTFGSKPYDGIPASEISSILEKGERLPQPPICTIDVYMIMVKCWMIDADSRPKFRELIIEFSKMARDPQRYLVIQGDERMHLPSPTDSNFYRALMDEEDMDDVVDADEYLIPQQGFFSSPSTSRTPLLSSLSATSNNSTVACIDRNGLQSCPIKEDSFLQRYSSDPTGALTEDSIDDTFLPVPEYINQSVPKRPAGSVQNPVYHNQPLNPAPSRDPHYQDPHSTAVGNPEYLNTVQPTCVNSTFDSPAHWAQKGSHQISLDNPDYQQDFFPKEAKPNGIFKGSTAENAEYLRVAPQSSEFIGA
Give just the number in %; leave the unit off.

Input: Which Dmax is listed for CCc1cc(Nc2ncc(Br)c(Nc3ccc4nccnc4c3P(C)(C)=O)n2)c(OC)cc1N1CCC(N2CCN(C(=O)CC3CCN(c4ccc(C5CCC(=O)NC5=O)cc4)CC3)CC2)CC1 (centres unmarked) ?
Output: 74.7

Input: I have this molecule here, COc1cc(N2CCN(CCOc3ccc(C4CCC(=O)NC4=O)cc3)CC2)c(C)cc1Nc1ncc(Br)c(Nc2ccc3nccnc3c2P(C)(C)=O)n1 (centres unmarked) , and I need its recorded Dmax.
Output: 73.5

Input: Fill blank: measured Dmax of the molecule CN(c1ccccc1Nc1nc(Nc2ccc(N3CC4(CN(C(=O)C5CCN(CC6CCN(c7ccc8c(c7)C(=O)N(C7CCC(=O)NC7=O)C8=O)CC6)CC5)C4)C3)c(F)c2)ncc1Cl)S(C)(=O)=O (centres unmarked) is ____.
Output: 92.5

Input: Which value of Dmax has been reported for COc1cc(N2CCC(N3CCN(C(=O)CCN4CCC(c5ccc(C6CCC(=O)NC6=O)cc5)CC4)CC3)CC2)ccc1Nc1ncc(Cl)c(Nc2ccccc2N(C)S(C)(=O)=O)n1 (centres unmarked) in the records?
Output: 88.8

Input: Item COc1cc(N2CCN(CCc3ccc(C4CCC(=O)NC4=O)cc3)CC2)c(C)cc1Nc1ncc(Br)c(Nc2ccc3nccnc3c2P(C)(C)=O)n1 (centres unmarked) has what recorded Dmax?
Output: 81
